Test system: Saccharomyces cerevisiae AR 399
method: MIC, YPD broth, CDC and FDA AR Candida isolate panel
Type: cell-based
conditions_used: Table 9 below the line: only 200 or 100 μg/mL tested; values reported as 100 are ≤100 μg/mL
Ends that are not written are not given here.
Please provide measured MIC (μg/mL) Saccharomyces cerevisiae AR 399 for the entries that follow.

Problem: Determine its reported MIC (μg/mL) Saccharomyces cerevisiae AR 399: TVGGLVKWILDTVKKFA-NH2 [STIP3-27, TVGGLVKWILDTVKKFA-NH2]
Result: ≤ 100 µg/mL

Problem: Determine its reported MIC (μg/mL) Saccharomyces cerevisiae AR 399: TVKFLVKWILKWVAKFA [STIP3-25, TVKFLVKWILKWVAKFA]
Result: ≤ 100 µg/mL

Problem: Determine its reported MIC (μg/mL) Saccharomyces cerevisiae AR 399: TVKVLVKWILKVVAKFA [STIP3-26, TVKVLVKWILKVVAKFA]
Result: ≤ 100 µg/mL

Problem: Determine its reported MIC (μg/mL) Saccharomyces cerevisiae AR 399: TVGGLVKWILDTFKKFA [STIP3-11, TVGGLVKWILDTFKKFA]
Result: ≤ 100 µg/mL
